Listing of entries alongside the reported half-life.
# Procedure Text: Half life in mouse liver microsomes
# Format: ADME
Quantity Kind: half-life

INSERT INTO measurements (smiles_text, reported_result) VALUES
  ('CS(=O)(=O)N1CCCCC(=O)N2CCc3cc(ccc32)Nc2ncc(C(F)(F)F)c(n2)NCc2cccnc21', '< 1 h'),
  ('CN1Cc2ccccc2N(S(C)(=O)=O)CCCCC(=O)N2CCc3cc(ccc32)Nc2ncc(C(F)(F)F)c1n2', '< 1 h'),
  ('CS(=O)(=O)N1CCCCC(=O)N2CCc3cc(ccc32)Nc2ncc(C(F)(F)F)c(n2)NCc2ccccc21', '< 1 h'),
  ('CCS(=O)(=O)N1CCCCC(=O)N2CCc3cc(ccc32)Nc2ncc(C(F)(F)F)c(n2)NCc2ccccc21', '< 1 h');

---

# Procedure Text: Kinetic solubility of compound at pH 7
# Assay type: physicochemical
# Measurement Parameters: buffer, read-out: Kinetic_solubility
Quantity Kind: solubility kinetic (µM)

INSERT INTO assay_data (smiles_text, inequality_operator, reported_result) VALUES
  ('CCS(=O)(=O)N1CCCCC(=O)N2CCc3cc(ccc32)Nc2ncc(C(F)(F)F)c(n2)NCc2ccccc21', '<', 1.6),
  ('CN1Cc2ccccc2N(S(C)(=O)=O)CCCCC(=O)N2CCc3cc(ccc32)Nc2ncc(C(F)(F)F)c1n2', '<', 1.6),
  ('CS(=O)(=O)N1CCCCC(=O)N2CCc3cc(ccc32)Nc2ncc(C(F)(F)F)c(n2)NCc2ccccc21', '<', 1.6),
  ('CS(=O)(=O)N1C/C=C/c2cccc(c2)Nc2ncc(C(F)(F)F)c(n2)NCc2cccnc21', '=', 0.3),
  ('CN1Cc2ccncc2N(S(C)(=O)=O)C/C=C/c2cc(ccc2N2CCOCC2)Nc2ncc(C(F)(F)F)c1n2', '=', 3),
  ('CN1Cc2cccnc2N(S(C)(=O)=O)C/C=C/c2cc(ccc2N2CCOCC2)Nc2ncc(C(F)(F)F)c1n2', '=', 1);
